Where do these numbers come from? They come from patent US20100160454A1.

Tested on: Proteus vulgaris Wild type
assayExplanation: Microbiological challenge testing in BPW broth, graded subculture counts
Assay type: cell-based
testParameters: 1.25% weight/volume; 3 day
propertyName: P. vulgaris growth grade, 3 day

Ask | Value lookup for P. vulgaris growth grade, 3 day; key = OCC1CCCCC1CO (stereo not drawn)
Reply | 2.3

====

System: Aspergillus niger Wild type
assayExplanation: Microbiological challenge testing in BPW broth, graded subculture counts
Type: cell-based
testParameters: A. niger, 2.5% (wt/vol), 13 day
I'd appreciate it if you could supply Grade values for the items below.
Numbers only.

As a guide, the following entries are already answered.
# compound, tgt, Grade
data = [
    ("OCC1CCCC(CO)C1 (stereo not shown)", "Aspergillus niger Wild type", 4),
    ("OCC1CCCCC1CO (stereo not shown)", "Aspergillus niger Wild type", 0),
    ("O=C([O-])CN(CCN(CC(=O)[O-])CC(=O)O)CC(=O)O.[Na+].[Na+]", "Aspergillus niger Wild type", 0),
    ("CCCCOCCO", "Aspergillus niger Wild type", 4),
]

Kindly review the next compound as well.
Ask | Find Grade (Aspergillus niger Wild type) for the entry CC(O)CO (stereo not shown)
Reply | 5

====

Tested on: Microsporum canis (ATTC 9084)
assayExplanation: Challenge testing against pathogenic fungi, growth rating in broth tubes
Assay type: cell-based
Parameters: key: 0: No visible growth; 1: Some growth in tube; 2: Moderate growth in tube; 3: Good growth in tube; 4: Extreme growth in tube
testParameters: 2.5% weight/volume; 30 day
I'd appreciate it if you could supply M. canis growth rating, 30 day values for the items below.
Numbers only.

As a guide, the following entries are already answered.
# molecule, recordedMeasurement
measured = [
    ("OCC1CCCCC1CO (stereo not drawn) [1,2-CHDM, 1,2-cyclohexanedimethanol]", 0),
    ("CC(O)CO (stereo not drawn) [PG, propylene glycol]", 2),
    ("OCC1CCCC(CO)C1 (stereo not drawn) [1,3-CHDM, 1,3-cyclohexanedimethanol]", 0),
    ("O=C([O-])CN(CCN(CC(=O)[O-])CC(=O)O)CC(=O)O.[Na+].[Na+] [EDTA, Na2EDTA]", 0),
    ("OCC1CCC(CO)CC1 (stereo not drawn) [1,4-CHDM, 1,4-cyclohexanedimethanol]", 0),
]

Ask | Find M. canis growth rating, 30 day (Microsporum canis (ATTC 9084)) for the entry CC1(C)C(O)C(C)(C)C1O (stereo not drawn) [TMCBD, 2,2,4,4-tetramethyl-1,3-cyclobutanediol]
Reply | 1

====

I'd appreciate it if you could supply T. rubrum growth rating, 3 day values for the items below.
Tested on: Trichophyton rubrum (ATCC 10218)
assayExplanation: Challenge testing against pathogenic fungi, growth rating in broth tubes
Assay type: cell-based
Design: key: 0: No visible growth; 1: Some growth in tube; 2: Moderate growth in tube; 3: Good growth in tube; 4: Extreme growth in tube
testParameters: 0.5% weight/volume; 3 day
Description: Both Microsporum canis and Trichophyton rubrum were grown on Sabouraud dextrose broth, while Malassezia fufur was grown in Sabouraud dextrose broth supplemented with 2% (v/v) of olive oil and 0.2% (v/v) of Tween™ 80; incubation was at 22°±2° C. under continuous agitation by stirring for 10 days. […] The actual inoculation cell density of these challenges were determined by diluting in sterile buffer water and (spread-plate method) plating for enumeration. […]
Answers are plain numbers.

Respectfully, I request T. rubrum growth rating, 3 day for each entry included below.
1. OCC1CCC(CO)CC1 (stereo not drawn) [1,4-CHDM, 1,4-cyclohexanedimethanol]
2. O=C([O-])CN(CCN(CC(=O)[O-])CC(=O)O)CC(=O)O.[Na+].[Na+] [EDTA, Na2EDTA]
3. OCC1CCCC(CO)C1 (stereo not drawn) [1,3-CHDM, 1,3-cyclohexanedimethanol]
4. OCC1CCCCC1CO (stereo not drawn) [1,2-CHDM, 1,2-cyclohexanedimethanol]
5. CC1(C)C(O)C(C)(C)C1O (stereo not drawn) [TMCBD, 2,2,4,4-tetramethyl-1,3-cyclobutanediol]

Reply |
1
1
0
0
1

Ask | Find T. rubrum growth rating, 3 day (Trichophyton rubrum (ATCC 10218)) for the entry CC(O)CO (stereo not drawn) [PG, propylene glycol]
Reply | 0
